All figures here come from paper PMC11839852.

Experiment: Biodistribution of Ln-DOTATATE and Ln-DOTA-LM3 (multiplexed ICP-MS)
Details: female, CD1 nude, mouse, muscle, intravenous, 0.5 nmol, Tissue uptake: Muscle, 24 h p.i., AR42J tumor-bearing mice
Where a SMILES comes first, the peptide text is derived from it. Bridges are numbered along the chain shown (N, C = ends). [ ]: non-standard residue; d: D form. The star is where a group is joined. DOTA = O=C(O)CN1CCN(CC(=O)O)CCN(CC(=O)*)CCN(CC(=O)O)CC1; dPhe(4-NHCONH2) = NC(=O)Nc1ccc(C[C@@H](N)C(=O)O)cc1; Phe(4-Cl) = N[C@@H](Cc1ccc(Cl)cc1)C(=O)O
measurement-type: tissue uptake at 24 h

The recorded tissue uptake at 24 h for C[C@@H](O)[C@@H]1NC(=O)[C@H](CCCCN)NC(=O)[C@@H](Cc2ccc(NC(N)=O)cc2)NC(=O)[C@H](Cc2ccc(O)cc2)NC(=O)[C@H](NC(=O)[C@H](Cc2ccc(Cl)cc2)NC(=O)CN2CCN(CC(=O)O)CCN(CC(=O)O)CCN(CC(=O)O)CC2)CSSC[C@@H](C(=O)N[C@H](Cc2ccc(O)cc2)C(N)=O)NC1=O [[^175Lu]Lu-DOTA-LM3] ({DOTA}-[Phe(4-Cl)][dC]Y[dPhe(4-NHCONH2)]KTC[dY]-NH2; disulfide 2-7 (inferred); C-terminus assumed) is < 0.5 %ID/g

###

Here the recorded Organ ratios: Liver-to-bone is given for each entry.
Test system: non-tumor-bearing immunocompetent FVB mice
Assay: Biodistribution of lanthanide chloride salts LnCl3 (multiplexed ICP-MS)
Format: in vivo
Conditions: 96 h p.i.
Format: numeric value only, no unit, no commentary.

Look over these answered cases.
[Cl][Lu]([Cl])[Cl] [[^175Lu]LuCl3] ... 0.14
[Cl][Gd]([Cl])[Cl] [[^157Gd]GdCl3] ... 1.1
[Cl][Tb]([Cl])[Cl] [[^159Tb]TbCl3] ... 0.59

Next:
The recorded Organ ratios: Liver-to-bone for [Cl-].[Cl-].[Cl-].[Eu+3] [[^153Eu]EuCl3] is 1.3

###

Test system: non-tumor-bearing immunocompetent FVB mice
Assay: Biodistribution of lanthanide chloride salts LnCl3 (multiplexed ICP-MS)
Type: in vivo
Conditions: 24 h p.i.
Here the recorded Organ ratios: Liver-to-bone is given for each entry.

Look over these answered cases.
[Cl][Lu]([Cl])[Cl] [[^175Lu]LuCl3] ... 0.49 ± 0.19
[Cl][Tb]([Cl])[Cl] [[^159Tb]TbCl3] ... 1.6 ± 0.5
[Cl-].[Cl-].[Cl-].[Eu+3] [[^153Eu]EuCl3] ... 2.7 ± 0.8

Next:
The recorded Organ ratios: Liver-to-bone for [Cl][Gd]([Cl])[Cl] [[^157Gd]GdCl3] is 2.2 ± 0.5

###

Assay: Biodistribution of Ln-DOTATATE and Ln-DOTA-LM3 (multiplexed ICP-MS)
Details: female, CD1 nude, mouse, bone, intravenous, 0.5 nmol, Tissue uptake: Bone, 1 h p.i., AR42J tumor-bearing mice
Where a SMILES comes first, the peptide text is derived from it. Bridges are numbered along the chain shown (N, C = ends). [ ]: non-standard residue; d: D form. The star is where a group is joined. DOTA = O=C(O)CN1CCN(CC(=O)O)CCN(CC(=O)*)CCN(CC(=O)O)CC1; dPhe(4-NHCONH2) = NC(=O)Nc1ccc(C[C@@H](N)C(=O)O)cc1; Phe(4-Cl) = N[C@@H](Cc1ccc(Cl)cc1)C(=O)O
measurement-type: tissue uptake at 1 h

The recorded tissue uptake at 1 h for C[C@@H](O)[C@@H]1NC(=O)[C@H](CCCCN)NC(=O)[C@@H](Cc2ccc(NC(N)=O)cc2)NC(=O)[C@H](Cc2ccc(O)cc2)NC(=O)[C@H](NC(=O)[C@H](Cc2ccc(Cl)cc2)NC(=O)CN2CCN(CC(=O)O)CCN(CC(=O)O)CCN(CC(=O)O)CC2)CSSC[C@@H](C(=O)N[C@H](Cc2ccc(O)cc2)C(N)=O)NC1=O [[^175Lu]Lu-DOTA-LM3] ({DOTA}-[Phe(4-Cl)][dC]Y[dPhe(4-NHCONH2)]KTC[dY]-NH2; disulfide 2-7 (inferred); C-terminus assumed) is < 0.5 %ID/g
